Test system: Melanoma
test: NCI SRB cytotoxicity, melanoma panel average
Assay type: cell-based, human
assay_setup: average of cell lines
Decision: Log10 TGI (concentration in mol/L causing total growth inhibition) compared against -5 mol/L; not below it gives rule met, below it gives rule not met.

{"columns": ["molecule", "label_value"],
 "data": [
  ["COc1ccc(C(=O)/C=C/c2cc(-c3ccc4c(c3)OCO4)n[nH]2)cc1OC [8f]", "rule met"],
  ["COc1cc(-c2cc(/C=C/C(=O)c3ccc(Cl)c(Cl)c3)[nH]n2)cc(OC)c1OC [12e]", "rule met"],
  ["COc1cc(-c2cc(/C=C/C(=O)c3ccc4c(c3)OCO4)[nH]n2)cc(OC)c1OC [11e]", "rule met"],
  ["COc1ccc(C(=O)/C=C/c2cc(-c3cc(OC)c(OC)c(OC)c3)n[nH]2)cc1OC [8e]", "rule not met"],
  ["COc1ccc(C(=O)/C=C/c2cc(-c3cc(OC)c(OC)c(OC)c3)n[nH]2)cc1 [7e]", "rule not met"],
  ["COc1cc(C(=O)/C=C/c2cc(-c3cc(OC)c(OC)c(OC)c3)n[nH]2)cc(OC)c1OC [10e]", "rule not met"]
]}

====

System: SNB-19
test: NCI SRB cytotoxicity, CNS SNB-19
Type: cell-based
assay_setup: Homo sapiens, 48 h exposure

{"columns": ["compound", "GI50 (µM)"],
 "data": [
  ["COc1cc(-c2cc(/C=C/C(=O)c3ccc(F)c(F)c3)[nH]n2)cc(OC)c1OC [13e]", 3.64],
  ["COc1cc(-c2cc(/C=C/C(=O)c3ccc4c(c3)OCO4)[nH]n2)cc(OC)c1OC [11e]", 4.3],
  ["COc1ccc(C(=O)/C=C/c2cc(-c3cc(OC)c(OC)c(OC)c3)n[nH]2)cc1 [7e]", 1.51],
  ["COc1cc(C(=O)/C=C/c2cc(-c3cc(OC)c(OC)c(OC)c3)n[nH]2)cc(OC)c1OC [10e]", 1.66],
  ["COc1ccc(C(=O)/C=C/c2cc(-c3cc(OC)c(OC)c(OC)c3)n[nH]2)cc1OC [8e]", 1.42],
  ["COc1cc(-c2cc(/C=C/C(=O)c3ccc(Cl)c(Cl)c3)[nH]n2)cc(OC)c1OC [12e]", 9.83],
  ["COc1ccc(C(=O)/C=C/c2cc(-c3ccc4c(c3)OCO4)n[nH]2)cc1OC [8f]", 3.2]
]}

====

The following compounds each carry a recorded GI50 for SK-MEL-28.
endpoint_name: GI50 (nM)

{"columns": ["compound", "unit_string", "test_result"],
 "data": [
  ["COc1cc(C(=O)/C=C/c2cc(-c3cc(OC)c(OC)c(OC)c3)n[nH]2)cc(OC)c1OC [10e]", "nM", 1820],
  ["COc1ccc(C(=O)/C=C/c2cc(-c3cc(OC)c(OC)c(OC)c3)n[nH]2)cc1", "nM", 2120],
  ["COc1cc(-c2cc(/C=C/C(=O)c3ccc(F)c(F)c3)[nH]n2)cc(OC)c1OC [13e]", "nM", 5310],
  ["COc1ccc(C(=O)/C=C/c2cc(-c3ccc4c(c3)OCO4)n[nH]2)cc1OC", "nM", 5760],
  ["COc1cc(-c2cc(/C=C/C(=O)c3ccc(Cl)c(Cl)c3)[nH]n2)cc(OC)c1OC [12e]", "nM", 18500],
  ["COc1cc(-c2cc(/C=C/C(=O)c3ccc4c(c3)OCO4)[nH]n2)cc(OC)c1OC [11e]", "nM", 2480],
  ["COc1ccc(C(=O)/C=C/c2cc(-c3cc(OC)c(OC)c(OC)c3)n[nH]2)cc1OC", "nM", 1780]
]}

The reported measurements were obtained from patent US9604933B2.
